- tested_on: T1, H4-15 histone H4 tail peptide
- T1 chain: GRGKGGKGLGKGGAK
measured_quantity: Km(µM) for H4-15
Numeric only. Scale: µM

Prompt line: // query Km(µM) for H4-15 value for entry semi-synthetic p300 HAT domain T1357R (protein) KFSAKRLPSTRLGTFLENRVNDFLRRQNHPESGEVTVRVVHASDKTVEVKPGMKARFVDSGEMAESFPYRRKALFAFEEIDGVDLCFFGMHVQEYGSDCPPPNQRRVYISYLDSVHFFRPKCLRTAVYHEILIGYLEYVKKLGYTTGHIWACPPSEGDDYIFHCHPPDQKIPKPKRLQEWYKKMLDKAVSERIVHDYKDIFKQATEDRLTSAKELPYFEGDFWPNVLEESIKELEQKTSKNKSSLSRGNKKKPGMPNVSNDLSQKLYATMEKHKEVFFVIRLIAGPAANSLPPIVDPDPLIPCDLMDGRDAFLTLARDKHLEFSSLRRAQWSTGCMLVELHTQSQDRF
Response line: 294

Prompt line: Field entry: semi-synthetic p300 HAT domain Y1394F (protein) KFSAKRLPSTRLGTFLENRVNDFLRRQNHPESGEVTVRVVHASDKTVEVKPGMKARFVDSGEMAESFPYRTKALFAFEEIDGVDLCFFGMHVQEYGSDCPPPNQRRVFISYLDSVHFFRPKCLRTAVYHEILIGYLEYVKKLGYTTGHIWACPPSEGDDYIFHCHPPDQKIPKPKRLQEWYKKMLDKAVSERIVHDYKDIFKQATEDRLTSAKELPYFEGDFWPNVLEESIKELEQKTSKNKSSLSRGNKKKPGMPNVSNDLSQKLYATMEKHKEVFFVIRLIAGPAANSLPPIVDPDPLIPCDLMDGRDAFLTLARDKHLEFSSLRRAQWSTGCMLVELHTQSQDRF
Response line: 136

Prompt line: Proceed to semi-synthetic p300 HAT domain W1436A (protein) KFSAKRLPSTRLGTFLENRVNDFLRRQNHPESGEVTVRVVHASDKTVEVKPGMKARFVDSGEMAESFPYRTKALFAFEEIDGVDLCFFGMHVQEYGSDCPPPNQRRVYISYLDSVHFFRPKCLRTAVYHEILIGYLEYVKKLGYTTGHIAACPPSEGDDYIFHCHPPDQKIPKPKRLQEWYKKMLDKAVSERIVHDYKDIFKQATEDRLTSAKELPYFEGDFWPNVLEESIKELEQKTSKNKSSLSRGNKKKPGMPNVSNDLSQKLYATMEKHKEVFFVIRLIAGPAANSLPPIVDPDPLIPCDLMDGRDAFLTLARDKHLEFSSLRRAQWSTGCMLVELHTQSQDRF
Response line: 394

Prompt line: Here is the next protein: semi-synthetic p300 HAT domain T1357L (protein) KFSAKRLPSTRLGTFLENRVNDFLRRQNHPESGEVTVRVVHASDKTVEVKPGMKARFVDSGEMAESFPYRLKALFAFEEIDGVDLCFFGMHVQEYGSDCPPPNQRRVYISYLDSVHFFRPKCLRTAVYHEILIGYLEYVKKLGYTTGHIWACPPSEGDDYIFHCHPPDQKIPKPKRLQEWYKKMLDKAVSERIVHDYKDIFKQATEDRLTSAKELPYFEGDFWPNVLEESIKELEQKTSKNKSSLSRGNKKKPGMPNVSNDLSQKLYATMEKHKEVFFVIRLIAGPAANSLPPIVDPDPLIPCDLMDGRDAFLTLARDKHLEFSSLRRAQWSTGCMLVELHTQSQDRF
Response line: 111
